biological target: Integrin alpha-IIb/beta-3 (Homo sapiens, UniProt P05106+P08514); assay: Inhibition of Integrin alphaIIb Beta3 receptor by solid-phase receptor binding assay
Sequence (P05106 27-788 limits assumed): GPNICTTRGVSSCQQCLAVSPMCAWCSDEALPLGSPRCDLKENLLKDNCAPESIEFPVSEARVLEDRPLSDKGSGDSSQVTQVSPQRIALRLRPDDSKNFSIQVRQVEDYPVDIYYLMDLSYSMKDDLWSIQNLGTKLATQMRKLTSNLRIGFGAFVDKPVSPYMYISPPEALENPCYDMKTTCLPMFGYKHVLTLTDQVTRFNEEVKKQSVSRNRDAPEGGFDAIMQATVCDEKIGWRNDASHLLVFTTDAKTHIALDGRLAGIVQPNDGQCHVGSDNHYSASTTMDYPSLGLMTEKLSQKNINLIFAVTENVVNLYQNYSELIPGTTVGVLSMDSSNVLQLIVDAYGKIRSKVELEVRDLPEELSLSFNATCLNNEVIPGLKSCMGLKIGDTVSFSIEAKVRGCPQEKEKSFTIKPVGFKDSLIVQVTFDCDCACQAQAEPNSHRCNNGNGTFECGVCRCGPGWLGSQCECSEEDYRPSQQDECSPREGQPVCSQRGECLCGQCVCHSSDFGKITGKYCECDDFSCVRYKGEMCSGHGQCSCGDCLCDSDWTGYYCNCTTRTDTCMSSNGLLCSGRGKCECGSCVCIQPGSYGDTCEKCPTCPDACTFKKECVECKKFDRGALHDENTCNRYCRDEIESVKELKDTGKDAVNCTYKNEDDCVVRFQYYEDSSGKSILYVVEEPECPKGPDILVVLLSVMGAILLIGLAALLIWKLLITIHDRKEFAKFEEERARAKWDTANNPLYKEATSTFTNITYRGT
Sequence (P08514 32-887 limits assumed): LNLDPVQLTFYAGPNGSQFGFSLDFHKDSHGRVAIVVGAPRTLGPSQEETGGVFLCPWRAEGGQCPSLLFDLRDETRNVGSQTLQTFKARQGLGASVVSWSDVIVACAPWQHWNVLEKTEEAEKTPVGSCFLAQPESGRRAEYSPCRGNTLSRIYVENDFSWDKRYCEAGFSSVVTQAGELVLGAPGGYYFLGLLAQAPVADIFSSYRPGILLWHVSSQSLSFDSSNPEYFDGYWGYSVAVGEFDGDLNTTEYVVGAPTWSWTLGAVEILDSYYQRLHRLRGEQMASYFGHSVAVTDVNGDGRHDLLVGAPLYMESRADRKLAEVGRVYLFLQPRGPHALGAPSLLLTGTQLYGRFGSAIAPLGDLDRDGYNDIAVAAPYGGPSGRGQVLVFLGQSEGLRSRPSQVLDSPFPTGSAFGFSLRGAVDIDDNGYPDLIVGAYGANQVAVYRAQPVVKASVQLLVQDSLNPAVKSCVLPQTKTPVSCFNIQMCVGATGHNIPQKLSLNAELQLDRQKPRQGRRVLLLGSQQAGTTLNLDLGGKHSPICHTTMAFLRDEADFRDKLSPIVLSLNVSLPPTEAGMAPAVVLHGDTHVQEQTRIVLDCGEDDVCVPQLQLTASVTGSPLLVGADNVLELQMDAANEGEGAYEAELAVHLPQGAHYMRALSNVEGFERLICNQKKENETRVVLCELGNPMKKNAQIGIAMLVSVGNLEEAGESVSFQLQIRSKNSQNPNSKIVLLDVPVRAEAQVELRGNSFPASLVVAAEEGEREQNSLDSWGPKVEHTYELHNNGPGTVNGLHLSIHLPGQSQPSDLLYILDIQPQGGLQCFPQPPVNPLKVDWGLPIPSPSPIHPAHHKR
Sequence (P08514 891-1039 limits assumed): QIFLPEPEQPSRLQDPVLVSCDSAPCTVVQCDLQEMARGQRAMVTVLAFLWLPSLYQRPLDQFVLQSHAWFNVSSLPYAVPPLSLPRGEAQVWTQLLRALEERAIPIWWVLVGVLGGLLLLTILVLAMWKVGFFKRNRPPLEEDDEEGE
ASSAY METRIC: log10 of IC50 (log10 of the value in µM)
Answers are given as log10 of IC50 in µM.

Reference set, count: 3
Cc1ccc(C(CC(=O)O)Cc2csc(CCCc3ccc4c(n3)NCCC4)n2)cc1 (stereo not given) = 0.30
Cc1nc2cc(C(CC(=O)O)Cc3csc(CCCc4ccc5c(n4)NCCC5)n3)ccc2s1 (stereo not given) = -1.02
O=C(O)CC(Cc1csc(CCCc2ccc3c(n2)NCCC3)n1)c1cccc(F)c1 (stereo not given) = -0.25

// log10 of IC50 lookup, key: COc1cc(OC)cc(C(CC(=O)O)Cc2csc(CCCc3ccc4c(n3)NCCC4)n2)c1 (stereo not given)
-0.46

And what about the compound O=C(O)CC(Cc1csc(CCCc2ccc3c(n2)NCCC3)n1)c1cnc(-c2ccc(Cl)cc2)s1 (stereo not given) ?
-0.25
